Numbers sourced from ChEMBL document CHEMBL1129258.

# Assay info: In vitro antibacterial activity against gram-negative organism Pseudomonas aeruginosa 5007
# Format: functional
# Applied conditions: Pseudomonas aeruginosa; read-out: MIC
Parameter measured: MIC (µg/mL)

Cc1c(N2C[C@H]3CCC[C@@H](N)[C@H]3C2)c(F)cn2c(=O)c(C(=O)O)cc(C3CC3)c12    0.39

[A] CCc1cc(C(=O)O)c(=O)n2cc(F)c(N3CCC(N)C3)c(C)c12 (stereo not drawn)
[B] Cc1c(N2C[C@H]3CCCN[C@H]3C2)c(F)cn2c(=O)c(C(=O)O)cc(C3CC3)c12 (single isomer, unassigned)
[C] NC1CCN(c2nc3c(C4CC4)cc(C(=O)O)c(=O)n3cc2F)C1 (stereo not drawn)
[D] CN1CCN(c2nc3c(C4CC4)cc(C(=O)O)c(=O)n3cc2F)CC1
[ask] Would you mind ranking these molecules by ascending MIC? Please list each label once, in the requested order.
[reply] A, C, B, D
(A: 0.2 µg/mL, C: 0.39 µg/mL, B: 0.78 µg/mL, D: 3.1 µg/mL)

[A] Cc1c(N2C[C@@H]3CCCN[C@@H]3C2)c(F)cn2c(=O)c(C(=O)O)cc(C3CC3)c12 (stereo in doubt; (S,S)45n)
[B] O=C(O)c1cc(C2CC2)c2nc(N3CCNCC3)c(F)cn2c1=O
[C] Cc1c(N2CCC(n3cccc3)C2)c(F)cn2c(=O)c(C(=O)O)cc(C3CC3)c12 (stereo not drawn)
[ask] Would you mind ranking these molecules by ascending MIC? Please list each label once, in the requested order.
[reply] A, B, C

[P] O=C(O)c1cc(-c2ccc(F)cc2F)c2nc(N3CCC(O)C3)c(F)cn2c1=O (stereo not drawn)
[Q] Cc1c(N2CC[C@@H]([C@@H](C)N)C2)c(F)cn2c(=O)c(C(=O)O)cc(C3CC3)c12
[ask] Kindly identify the item with the lower MIC figure among these two: P and Q Please respond with the label that marks your chosen entry.
[reply] Q

[a] Cc1c(N2CCC(C)(N)C2)c(F)cn2c(=O)c(C(=O)O)cc(C3CC3)c12 (stereo not drawn)
[b] O=C(O)c1cc(C2CC2)c2cc(N3CCNCC3)c(F)cn2c1=O
[ask] Kindly identify the item with the lower MIC figure among these two: a and b Please respond with the label that marks your chosen entry.
[reply] a
(a: 0.2 µg/mL, b: 0.39 µg/mL)

[I] Cc1c(N2CC[C@@H](N)C2)c(F)cn2c(=O)c(C(=O)O)cc(C3CC3)c12
[II] Cc1c(N2CCC(CN)C2)c(F)cn2c(=O)c(C(=O)O)cc(C3CC3)c12 (stereo not drawn)
[ask] Could you please tell me which of these two has the higher MIC: I or II ? Please respond with the label that marks your chosen entry.
[reply] II
(II: 0.1 µg/mL, I: 0.05 µg/mL)

[P] Cc1c(N2CC[C@@H]([C@H](C)N)C2)c(F)cn2c(=O)c(C(=O)O)cc(C3CC3)c12
[Q] NC1CCN(c2nc3c(-c4ccc(F)cc4F)cc(C(=O)O)c(=O)n3cc2F)C1 (stereo not drawn)
[ask] Kindly identify the item with the lower MIC figure among these two: P and Q Please respond with the label that marks your chosen entry.
[reply] P

[a] Cc1c(N2CC[C@H](O)C2)c(F)cn2c(=O)c(C(=O)O)cc(C3CC3)c12
[b] Cc1c(N(C)CCN)c(F)cn2c(=O)c(C(=O)O)cc(C3CC3)c12
[c] Cc1c(N2CC[C@H]([C@@H](C)N)C2)c(F)cn2c(=O)c(C(=O)O)cc(C3CC3)c12
[ask] Would you mind ranking these molecules by ascending MIC? Please list each label once, in the requested order.
[reply] c, a, b
(c: 0.2 µg/mL, a: 0.39 µg/mL, b: 6.2 µg/mL)

[P] Cc1c(N2CCC(n3ccnn3)C2)c(F)cn2c(=O)c(C(=O)O)cc(C3CC3)c12 (stereo not drawn)
[Q] O=C(O)c1cc(C2CC2)c2nc(N3CCOCC3)c(F)cn2c1=O
[ask] Could you please tell me which of these two has the higher MIC: P or Q ? Please respond with the label that marks your chosen entry.
[reply] Q

###

# Target under test: DNA gyrase (Escherichia coli) (UniProt P0AES6+P0AES4)
# Applied conditions: Escherichia coli K-12
# Description: Concentration which causes 50% of the gyrase (Escherichia coli H560)-mediated maximal DNA cleavage.
Parameter measured: CC50 (µg/mL)
Could you give me the number in µg/mL? Just the number is fine.

Cc1c(N2C[C@@H](N)C[C@@H]2C)c(F)cn2c(=O)c(C(=O)O)cc(C3CC3)c12    0.2

[ask] I would be grateful if you could share the reported CC50 for Cc1c(N2C[C@@H](N)[C@@H](C)C2)c(F)cn2c(=O)c(C(=O)O)cc(C3CC3)c12 .
[reply] 0.06

[ask] I would be grateful if you could share the reported CC50 for O=C(O)c1cc(C2CC2)c2nc(N3CCNCC3)c(F)cn2c1=O .
[reply] 2

[ask] I would be grateful if you could share the reported CC50 for C[C@H]1C[C@H](N)CN1c1nc2c(-c3ccc(F)cc3F)cc(C(=O)O)c(=O)n2cc1F .
[reply] 0.5

[ask] I would be grateful if you could share the reported CC50 for O=C(O)c1cc(C2CC2)c2nc(N3CCOCC3)c(F)cn2c1=O .
[reply] 1.5

[ask] I would be grateful if you could share the reported CC50 for NC1CCN(c2c(F)cn3c(=O)c(C(=O)O)cc(C4CC4)c3c2F)C1 (centres undefined) .
[reply] 2.2

[ask] I would be grateful if you could share the reported CC50 for O=C(O)c1cc(-c2ccc(F)cc2F)c2nc(N3CCC(O)C3)c(F)cn2c1=O (centres undefined) .
[reply] 0.5

[ask] I would be grateful if you could share the reported CC50 for Cc1c(N2C[C@@H]3CCCN[C@@H]3C2)c(F)cn2c(=O)c(C(=O)O)cc(C3CC3)c12 (stereo in doubt; 45n) .
[reply] 0.3

[ask] I would be grateful if you could share the reported CC50 for Cc1c(N2C[C@@H](C)N[C@@H](C)C2)c(F)cn2c(=O)c(C(=O)O)cc(C3CC3)c12 .
[reply] 1.8

###

# Target under test: DNA gyrase (Escherichia coli) (UniProt P0AES6+P0AES4)
# Assay info: In vitro antibacterial activity against gram-negative organism […] ATCC 13048
# Assay type: functional
# Applied conditions: Enterobacter aerogenes
Parameter measured: MIC (µg/mL)

[A] Cc1c(N2C[C@@H]3CCN[C@@H]3C2)c(F)cn2c(=O)c(C(=O)O)cc(C3CC3)c12 (stereo in doubt; 45o)
[B] Cc1c(N2CC[C@@H]([C@H](C)N)C2)c(F)cn2c(=O)c(C(=O)O)cc(C3CC3)c12
[C] Cc1c(N2C[C@@H]3C[C@H]2CN3)c(F)cn2c(=O)c(C(=O)O)cc(C3CC3)c12
[D] CCc1cc(C(=O)O)c(=O)n2ccc(N3CCC(N)C3)cc12.Cl (centres undefined)
[ask] Ordering: ascending MIC. Please list each label once, in the requested order.
[reply] B, A, C, D
(B: 0.01 µg/mL, A: 0.05 µg/mL, C: 0.1 µg/mL, D: 3.1 µg/mL)

###

# Target under test: DNA gyrase (Staphylococcus aureus) (UniProt P0A0K8+P20831)
# Assay info: In vitro antibacterial activity against gram-positive organism Staphylococcus aureus NCTC-10649M
# Format: functional
Parameter measured: MIC (µg/mL)

Guide cases for MIC, answers given:
CCc1cc(C(=O)O)c(=O)n2cc(F)c(N3CCC(N)C3)c(C)c12 (centres undefined)    0.1
Cc1c(N2CC(N)C2)c(F)cn2c(=O)c(C(=O)O)cc(C3CC3)c12    0.05
Cc1c(N2C[C@@H]3[C@@H](N)[C@@H]3C2)c(F)cn2c(=O)c(C(=O)O)cc(C3CC3)c12    0.02

[a] Cc1c(N2C[C@@H]3CCN[C@@H]3C2)c(F)cn2c(=O)c(C(=O)O)cc(C3CC3)c12 (stereo in doubt; 45o)
[b] Cc1c(N2CCC(n3ccnn3)C2)c(F)cn2c(=O)c(C(=O)O)cc(C3CC3)c12 (centres undefined)
[c] NC1CCN(c2c(F)cn3c(=O)c(C(=O)O)cc(C4CC4)c3c2Cl)C1 (centres undefined)
[ask] Parameters: sort_field (MIC), sort_dir (desc). Please list each label once, in the requested order.
[reply] c, a, b

[I] Cc1c(N2CC[C@@H](N)C2)c(F)cn2c(=O)c(C(=O)O)cc(C3CC3)c12
[II] Cc1c(N2CCCNCC2)c(F)cn2c(=O)c(C(=O)O)cc(C3CC3)c12
[III] Cc1c(N2C[C@H]3CCC[C@H](N)[C@H]3C2)c(F)cn2c(=O)c(C(=O)O)cc(C3CC3)c12
[ask] Would you mind ranking these compounds by ascending MIC? Please list each label once, in the requested order.
[reply] III, I, II
(III: 0.005 µg/mL, I: 0.02 µg/mL, II: 0.2 µg/mL)
